Molecular target: human BACE1 (1-460):Fc (Homo sapiens, UniProt P56817)
Sequence (P56817 22-460): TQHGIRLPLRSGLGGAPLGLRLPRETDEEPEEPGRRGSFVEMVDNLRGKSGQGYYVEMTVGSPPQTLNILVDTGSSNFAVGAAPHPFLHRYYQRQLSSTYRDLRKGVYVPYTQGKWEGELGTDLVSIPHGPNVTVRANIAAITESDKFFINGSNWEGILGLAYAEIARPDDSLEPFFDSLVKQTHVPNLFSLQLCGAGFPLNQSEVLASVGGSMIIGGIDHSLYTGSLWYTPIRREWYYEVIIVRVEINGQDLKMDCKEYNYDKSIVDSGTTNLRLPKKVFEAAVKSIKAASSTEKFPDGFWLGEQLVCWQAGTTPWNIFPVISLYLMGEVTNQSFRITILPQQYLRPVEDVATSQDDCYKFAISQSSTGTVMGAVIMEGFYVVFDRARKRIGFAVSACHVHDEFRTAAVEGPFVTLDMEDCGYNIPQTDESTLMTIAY
Where a name gives a salt, the structure may show the parent alone.
Simple rule here: IC50 less than 400 nM is condition met, otherwise condition not met.

COMPOUND: CC(=O)N[C@@H](Cc1cc(F)cc(F)c1)[C@H](O)[C@H]1C[C@@H](CC(=O)N2CCCCC2)CN1 [Example 33, hydrochloride]
GROUP: condition not met
--
COMPOUND: CCC(C)Nc1cc(C(=O)NC(Cc2ccccc2)C(O)C2CCCN2)cc(N(C)S(C)(=O)=O)n1 (stereo not shown) [Example 12, hydrochloride]
GROUP: condition met
--
COMPOUND: CC(=O)N[C@@H](Cc1cc(F)cc(F)c1)[C@H](O)[C@H]1C[C@@H](OCCC2CCCCC2)CN1 [Example 60, hydrochloride]
GROUP: condition not met
--
COMPOUND: CC(=O)N[C@@H](Cc1cc(F)cc(F)c1)[C@H](O)[C@H]1C[C@@H](CC(=O)N2CCOCC2)CN1 [Example 35, hydrochloride]
GROUP: condition not met
--
COMPOUND: CCC(C)Nc1cc(C(=O)NC(Cc2ccccc2)C(O)C2CC(F)CN2)cc(N(C)S(C)(=O)=O)n1 (stereo not shown) [Example 7, bishydrochloride]
GROUP: condition met
--
COMPOUND: CC(=O)N[C@@H](Cc1cc(F)cc(F)c1)[C@H](O)[C@H]1C[C@@H](CC(=O)N2CCCCCC2)CN1 [Example 41, hydrochloride]
GROUP: condition met
--
COMPOUND: CC(=O)N[C@@H](Cc1cc(F)cc(F)c1)[C@H](O)[C@H]1C[C@@H](CC(=O)N(C)C)CN1 [Example 37, hydrochloride]
GROUP: condition not met
